Data credit: ChEMBL document CHEMBL4304800

System: Moraxella catarrhalis
assay method text: Bactericidal activity against serine beta-lactamase producing Moraxella catarrhalis incubated in MH broth for 24 to 48 hrs by microbroth dilution method
Type: functional
Strictly below 20 µg/mL in MBC: y. Otherwise: n.

molecule: C[C@@H](NC(=O)N1C(=O)C[C@@H]1Sc1ccc(F)cc1)c1ccccc1
class assignment: n
--
molecule: C[C@H](NC(=O)N1C(=O)C[C@H]1Sc1ccc(F)cc1F)c1ccccc1
class assignment: n
--
molecule: O=C1CC(Sc2ccc(F)cc2Cl)N1C(=O)NCc1ccccc1 (racemic)
class assignment: y
--
molecule: COc1ccc(S[C@H]2CC(=O)N2C(=O)N[C@@H](C)c2ccccc2)cc1
class assignment: n
--
molecule: C[C@@H](NC(=O)N1C(=O)C[C@H]1Sc1ccc(C(F)(F)F)cc1)c1ccccc1
class assignment: n
--
molecule: C[C@@H](NC(=O)N1C(=O)C[C@@H]1Sc1ccc(F)cc1Cl)c1ccccc1
class assignment: n
--
molecule: COc1ccc(S[C@@H]2CC(=O)N2C(=O)N[C@@H](C)c2ccccc2)cc1
class assignment: n
--
molecule: C[C@@H](NC(=O)N1C(=O)C[C@@H]1Sc1c(F)c(F)c(F)c(F)c1F)c1ccccc1
class assignment: y
--
molecule: C[C@H](NC(=O)N1C(=O)C[C@@H]1Sc1c(F)c(F)c(F)c(F)c1F)c1ccccc1
class assignment: y
--
molecule: COc1ccc(S[C@@H]2CC(=O)N2C(=O)N[C@H](C)c2ccccc2)cc1
class assignment: n
--
molecule: C[C@H](NC(=O)N1C(=O)C[C@@H]1[Se]c1ccccc1)c1ccccc1
class assignment: n
--
molecule: C[C@H](NC(=O)N1C(=O)C[C@@H]1Sc1ccc(C(F)(F)F)cc1)c1ccccc1
class assignment: n
--
molecule: CC[C@H]1OC(=O)[C@H](C)[C@@H](O[C@H]2C[C@@](C)(OC)[C@@H](O)[C@H](C)O2)[C@H](C)[C@@H](O[C@@H]2O[C@H](C)C[C@H](N(C)C)[C@H]2O)[C@](C)(O)C[C@@H](C)CN(C)[C@H](C)[C@@H](O)[C@]1(C)O
class assignment: y
--
molecule: C[C@@H](NC(=O)N1C(=O)C[C@@H]1Sc1ccc(F)cc1F)c1ccccc1
class assignment: n
--
molecule: C[C@@H](NC(=O)N1C(=O)C[C@@H]1Sc1ccc(F)c(Cl)c1)c1ccccc1
class assignment: n
--
molecule: C[C@H](NC(=O)N1C(=O)C[C@H]1Sc1c(F)c(F)c(F)c(F)c1F)c1ccccc1
class assignment: n
--
molecule: O=C1CC(Sc2cccc(C(F)(F)F)c2)N1 (racemic)
class assignment: y
--
molecule: C[C@H](NC(=O)N1C(=O)C[C@H]1Sc1ccc(F)c(Cl)c1)c1ccccc1
class assignment: n
--
molecule: COc1ccc(S[C@H]2CC(=O)N2C(=O)N[C@H](C)c2ccccc2)cc1
class assignment: n
--
molecule: C[C@H](NC(=O)N1C(=O)C[C@H]1Sc1ccc(F)cc1)c1ccccc1
class assignment: n

====

System: Moraxella catarrhalis
assay method text: Bactericidal activity against serine beta-lactamase producing Moraxella catarrhalis incubated in MH broth for 24 to 48 hrs by microbroth dilution method
Assay type: functional
Strictly below 50 µg/mL in MBC: 1 (yes). Otherwise: 0 (no).

molecule: C[C@H](NC(=O)N1C(=O)C[C@H]1Sc1ccc(F)cc1Cl)c1ccccc1
class assignment: 0 (no)
--
molecule: C[C@@H](NC(=O)N1C(=O)C[C@H]1Sc1ccc(F)cc1F)c1ccccc1
class assignment: 1 (yes)
--
molecule: C[C@@H](NC(=O)N1C(=O)C[C@@H]1Sc1ccc(F)c(F)c1)c1ccccc1
class assignment: 1 (yes)
--
molecule: C[C@@H](NC(=O)N1C(=O)C[C@H]1Sc1ccccc1F)c1ccccc1
class assignment: 1 (yes)
--
molecule: O=C1CC([Se]c2ccccc2)N1 (racemic)
class assignment: 1 (yes)
--
molecule: C[C@@H](NC(=O)N1C(=O)C[C@H]1Sc1c(F)c(F)c(F)c(F)c1F)c1ccccc1
class assignment: 1 (yes)
--
molecule: COc1ccccc1S[C@@H]1CC(=O)N1C(=O)N[C@@H](C)c1ccccc1
class assignment: 0 (no)
--
molecule: COc1ccc(SC2CC(=O)N2)cc1 (racemic)
class assignment: 0 (no)
--
molecule: O=C1CC(Sc2ccc(F)cc2F)N1C(=O)NCc1ccccc1 (racemic)
class assignment: 1 (yes)
--
molecule: C[C@H](NC(=O)N1C(=O)C[C@@H]1Sc1ccccc1F)c1ccccc1
class assignment: 0 (no)
--
molecule: C[C@@H](NC(=O)N1C(=O)C[C@@H]1Sc1ccc(C(F)(F)F)cc1)c1ccccc1
class assignment: 0 (no)
--
molecule: C[C@@H](NC(=O)N1C(=O)C[C@H]1Sc1ccc(F)c(F)c1)c1ccccc1
class assignment: 1 (yes)
--
molecule: C[C@@H](NC(=O)N1C(=O)C[C@H]1Sc1ccc(F)cc1Cl)c1ccccc1
class assignment: 1 (yes)
--
molecule: C[C@@H](NC(=O)N1C(=O)C[C@H]1Sc1ccc(F)c(Cl)c1)c1ccccc1
class assignment: 1 (yes)

====

Tested on: Mycobacterium tuberculosis
assay method text: Antitubercular activity against serine beta-lactamase producing Mycobacterium tuberculosis H37Rv after 14 days in presence of GAST/Fe medium by eleven fold serial dilution method
Type: functional
assay conditions: 336 h

compound: COc1ccccc1S[C@@H]1CC(=O)N1C(=O)N[C@H](C)c1ccccc1
units of measure: µg/mL
MIC99: 25

compound: COc1ccc(S[C@@H]2CC(=O)N2C(=O)N[C@H](C)c2ccccc2)cc1
units of measure: µg/mL
MIC99: 25

compound: C[C@@H](NC(=O)N1C(=O)C[C@@H]1Sc1ccc(F)c(F)c1)c1ccccc1
units of measure: µg/mL
MIC99: 0.7

compound: C[C@H](NC(=O)N1C(=O)C[C@@H]1Sc1ccc(F)cc1Cl)c1ccccc1
units of measure: µg/mL
MIC99: 1.5

compound: C[C@H](NC(=O)N1C(=O)C[C@H]1[Se]c1ccccc1)c1ccccc1
units of measure: µg/mL
MIC99: 6.2

compound: C[C@@H](NC(=O)N1C(=O)C[C@H]1Sc1ccc(F)c(Cl)c1)c1ccccc1
units of measure: µg/mL
MIC99: 1.5

compound: C[C@H](NC(=O)N1C(=O)C[C@H]1Sc1c(F)c(F)c(F)c(F)c1F)c1ccccc1
units of measure: µg/mL
MIC99: 0.7

compound: C[C@H](NC(=O)N1C(=O)C[C@@H]1Sc1ccccc1F)c1ccccc1
units of measure: µg/mL
MIC99: 6.2

compound: C[C@@H](NC(=O)N1C(=O)C[C@H]1Sc1ccc(F)cc1)c1ccccc1
units of measure: µg/mL
MIC99: 25

compound: COc1ccccc1S[C@H]1CC(=O)N1C(=O)N[C@H](C)c1ccccc1
units of measure: µg/mL
MIC99: 25

compound: C[C@H](NC(=O)N1C(=O)C[C@@H]1Sc1ccc(F)c(Cl)c1)c1ccccc1
units of measure: µg/mL
MIC99: 1.5

compound: C[C@@H](NC(=O)N1C(=O)C[C@@H]1Sc1ccc(F)cc1Cl)c1ccccc1
units of measure: µg/mL
MIC99: 0.7

compound: C[C@@H](NC(=O)N1C(=O)C[C@H]1[Se]c1ccccc1)c1ccccc1
units of measure: µg/mL
MIC99: 12.5

compound: COc1ccccc1S[C@@H]1CC(=O)N1C(=O)N[C@@H](C)c1ccccc1
units of measure: µg/mL
MIC99: 25

compound: C[C@@H](NC(=O)N1C(=O)C[C@@H]1Sc1ccccc1F)c1ccccc1
units of measure: µg/mL
MIC99: 12.5

compound: C[C@H](NC(=O)N1C(=O)C[C@@H]1Sc1c(F)c(F)c(F)c(F)c1F)c1ccccc1
units of measure: µg/mL
MIC99: 0.7

compound: COc1ccccc1S[C@H]1CC(=O)N1C(=O)N[C@@H](C)c1ccccc1
units of measure: µg/mL
MIC99: 6.2

compound: C[C@H](NC(=O)N1C(=O)C[C@@H]1[Se]c1ccccc1)c1ccccc1
units of measure: µg/mL
MIC99: 6.2

compound: C[C@H](NC(=O)N1C(=O)C[C@H]1Sc1ccc(F)cc1Cl)c1ccccc1
units of measure: µg/mL
MIC99: 1.5

compound: O=C1CC(Sc2ccc(F)cc2Cl)N1C(=O)NCc1ccccc1 (racemic)
units of measure: µg/mL
MIC99: 0.3

====

Test system: Mycobacterium tuberculosis
assay method text: Antitubercular activity against serine beta-lactamase producing Mycobacterium tuberculosis H37Rv after 14 days in presence of middlebrook 7H9/BSA medium by eleven fold serial dilution method
Type: functional
assay conditions: 336 h

compound: COc1ccc(S[C@H]2CC(=O)N2C(=O)N[C@H](C)c2ccccc2)cc1
operator: =
MIC99 [µg/mL]: 100
//
compound: C[C@H](NC(=O)N1C(=O)C[C@H]1Sc1ccc(C(F)(F)F)cc1)c1ccccc1
operator: =
MIC99 [µg/mL]: 100
//
compound: O=C1CC(Sc2ccc(F)c(F)c2)N1 (racemic)
operator: =
MIC99 [µg/mL]: 50
//
compound: C[C@@H](NC(=O)N1C(=O)C[C@H]1Sc1ccc(F)c(F)c1)c1ccccc1
operator: ≥
MIC99 [µg/mL]: 100
//
compound: C[C@H](NC(=O)N1C(=O)C[C@H]1Sc1ccc(F)cc1)c1ccccc1
operator: =
MIC99 [µg/mL]: 50
//
compound: O=C1CC(Sc2ccc(F)cc2Cl)N1C(=O)NCc1ccccc1 (racemic)
operator: =
MIC99 [µg/mL]: 37.5
//
compound: C[C@@H](NC(=O)N1C(=O)C[C@@H]1Sc1ccc(F)cc1F)c1ccccc1
operator: =
MIC99 [µg/mL]: 25
//
compound: O=C1CC(Sc2ccc(C(F)(F)F)cc2)N1 (racemic)
operator: =
MIC99 [µg/mL]: 25
//
compound: O=C1CC(Sc2ccc(F)cc2F)N1C(=O)NCc1ccccc1 (racemic)
operator: =
MIC99 [µg/mL]: 100
//
compound: O=C1CC(Sc2cccc(C(F)(F)F)c2)N1 (racemic)
operator: =
MIC99 [µg/mL]: 25
